Biological target: human PDE5 (Homo sapiens)
Construct: from tissue; host or cells: human platelets from fresh donor blood (platelet lysate)
Test: Inhibition of PDE5 activity (platelet lysate, SPA assay)
Assay type: biochemical
Settings: 0.5 μM cGMP, read-out: PDE5 Inhibitory values measured as -logIC50 (converted)

[
  {
    "Structure as smiles": "COc1ccc(C2=NN(C3CCN(C(=O)[C@@H](CCC(=O)N(C)C)NC(=O)c4c(C)[nH]c5c(-c6c(OCC7CC7)ccc7c6OCO7)ncnc45)CC3)C(=O)C(C)(C)C2)cc1OC",
    "IC50": "< 1 nM"
  },
  {
    "Structure as smiles": "COc1cc(OCC2CC2)c(-c2ncnc3c(C(=O)N[C@@H](Cc4cccc(C)c4)C(=O)N4CCC(N5N=C(c6ccc(OC)c(OC)c6)[C@H]6CCCC[C@H]6C5=O)CC4)c(C)[nH]c23)cc1F",
    "IC50": "1 to 10 nM"
  },
  {
    "Structure as smiles": "COc1ccc(C2=NN(C3CCN(C(=O)[C@@H](Cc4ccccc4)NC(=O)c4c[nH]c5c(-c6c(OCC7CC7)ccc7c6OCO7)ncnc45)CC3)C(=O)[C@H]3CCCC[C@@H]23)cc1OC",
    "IC50": "1 to 10 nM"
  },
  {
    "Structure as smiles": "COc1ccc(C2=NN(C3CCN(C(=O)[C@H](Cc4cccc(C)c4)NC(=O)c4c(C)[nH]c5c(-c6c(OCC7CC7)ccc7c6OCO7)ncnc45)CC3)C(=O)[C@@H]3CCCC[C@H]23)cc1OC",
    "IC50": "1 to 10 nM"
  },
  {
    "Structure as smiles": "COc1ccc(C2=NN(C3CCN(C(=O)[C@@H](Cc4ccccc4)NC(=O)c4c(C)[nH]c5c(-c6c(OCC7CC7)ccc7c6OCO7)ncnc45)CC3)C(=O)C(C)(C)C2)cc1OC",
    "IC50": "< 1 nM"
  },
  {
    "Structure as smiles": "COc1cc(OCC2CC2)c(-c2ncnc3c(C(=O)N[C@@H](CCC(=O)N4CCCCC4)C(=O)N4CCC(N5N=C(c6ccc(OC)c(OC)c6)[C@H]6CCCC[C@H]6C5=O)CC4)c(C)[nH]c23)cc1F",
    "IC50": "< 1 nM"
  },
  {
    "Structure as smiles": "COc1cc(OCC2CC2)c(-c2ncnc3c(C(=O)N[C@H](Cc4ccccc4)C(=O)N4CCC(N5N=C(c6ccc(OC)c(OC)c6)[C@H]6CCCC[C@H]6C5=O)CC4)c(C)[nH]c23)cc1F",
    "IC50": "1 to 10 nM"
  },
  {
    "Structure as smiles": "COc1ccc(C2=NN(C3CCN(C(=O)[C@H](NC(=O)c4c(C)[nH]c5c(-c6c(OCC7CC7)ccc7c6OCO7)ncnc45)C(C)C)CC3)C(=O)[C@@H]3CCCC[C@H]23)cc1OC",
    "IC50": "1 to 10 nM"
  },
  {
    "Structure as smiles": "COc1cc(OCC2CC2)c(-c2ncnc3c(C(=O)N[C@H](Cc4ccccc4)C(=O)N4CCC(N5N=C(c6ccc(OC)c(OC)c6)CC(C)(C)C5=O)CC4)c(C)[nH]c23)cc1F",
    "IC50": "1 to 10 nM"
  },
  {
    "Structure as smiles": "COc1ccc(C2=NN(C3CCN(C(=O)[C@H](Cc4ccncc4)NC(=O)c4c(C)[nH]c5c(-c6c(OCC7CC7)ccc7c6OCO7)ncnc45)CC3)C(=O)[C@@H]3CCCC[C@H]23)cc1OC",
    "IC50": "< 1 nM"
  }
]
